Provenance of the data: patent EP4678639A1

- procedureSummary: Photostability test, ultraviolet light (200 W·hr/m2) exposure
- conditionSet: Table 10, after UV exposure vs initial
Counter-ions that a name gives are not always drawn.
Parameter threshold = 0.05%. Response is MET when Change (%) Degradant meets or exceeds it, else NOT MET.

INSERT INTO measurements (molecule, classassignment) VALUES
  ('Cc1nc2c(O[C@H]3CCOc4cc(F)cc(F)c43)cc(C(=O)N(C)C)cc2[nH]1 [Pidolate Salt]', 'NOT MET'),
  ('Cc1nc2c(O[C@H]3CCOc4cc(F)cc(F)c43)cc(C(=O)N(C)C)cc2[nH]1 [Phosphate Salt]', 'NOT MET'),
  ('Cc1nc2c(O[C@H]3CCOc4cc(F)cc(F)c43)cc(C(=O)N(C)C)cc2[nH]1 [Hemisalicylate Salt]', 'MET'),
  ('Cc1nc2c(O[C@H]3CCOc4cc(F)cc(F)c43)cc(C(=O)N(C)C)cc2[nH]1 [Sulfate Salt]', 'MET');

Input line: Can Cc1nc2c(O[C@H]3CCOc4cc(F)cc(F)c43)cc(C(=O)N(C)C)cc2[nH]1 [Methanesulfonate Salt (Crystalline Form)] be said to have Change (%) Degradant at or above 0.05%?
Output line: NOT MET

Input line: API: above_or_equal(metric=Change (%) Degradant, cutoff=0.05%) for item Cc1nc2c(O[C@H]3CCOc4cc(F)cc(F)c43)cc(C(=O)N(C)C)cc2[nH]1 [Hydrobromide Salt]
Output line: MET

Input line: Given the entry Cc1nc2c(O[C@H]3CCOc4cc(F)cc(F)c43)cc(C(=O)N(C)C)cc2[nH]1 [Malate Salt] , answer whether its Change (%) Degradant meets or surpasses 0.05%.
Output line: NOT MET

Input line: Does the reported Change (%) Degradant for Cc1nc2c(O[C@H]3CCOc4cc(F)cc(F)c43)cc(C(=O)N(C)C)cc2[nH]1 [Methanesulfonate Salt (Amorphous Form)] fall at or above the 0.05% mark?
Output line: MET

Input line: Could you tell me if the measured Change (%) Degradant of Cc1nc2c(O[C@H]3CCOc4cc(F)cc(F)c43)cc(C(=O)N(C)C)cc2[nH]1 [Maleate Salt] reaches 0.05% or more?
Output line: NOT MET
